Tested on: BS-C-1 cells
METHOD_NOTES: WST-1 cytotoxicity assay
CONDITIONS_USED: 72 h, Table 6
Hi! Just check whether tox 72 h TC50 is below 40 µM. Below gives Fulfilled, equal or above gives Not fulfilled.

>>> class("CC(=O)n1c2ccccc2c2nc(C)sc21")
"Not fulfilled"
>>> class("Cc1cc(/N=C/c2cc(Cl)cc(Cl)c2O)no1")
"Not fulfilled"
>>> class("O=C(O)Cn1c2ccc(Cl)cc2c2nc3ccccc3nc21")
"Fulfilled"
>>> class("Cc1c(/N=C/c2cc(Br)cc(Br)c2Br)cccc1C(=O)O")
"Fulfilled"
>>> class("N=C1S/C(=C/c2ccco2)C(=O)N1c1nccs1")
"Not fulfilled"
>>> class("N=C1/C(=C/c2coc3ccccc3c2=O)C(=O)N=C2SC=NN12")
"Not fulfilled"
>>> class("Cc1cc(OC(=O)c2ccco2)nc(SCc2c(Cl)cccc2Cl)n1")
"Not fulfilled"
>>> class("CCn1c2ccccc2c2ccc(/C=N/n3cnnc3)cc21")
"Fulfilled"
>>> class("Nc1ccn(C[C@@H](CO)OCP(=O)(O)O)c(=O)n1 [Cidofovir, reference compound]")
"Not fulfilled"
>>> class("Cc1ccc2c(Sc3ccc(Cl)cc3)c(C(=O)O)[nH]c2c1")
"Not fulfilled"
>>> class("O=C1/C(=C/C2CCCO2)CC/C1=C\\C1CCCO1 (stereo not drawn)")
"Not fulfilled"

---

Attribute: CC50 at 72 h
METHOD_NOTES: WST-1 cytotoxicity assay
CONDITIONS_USED: African green monkey, BS-C-1 cells
READOUT_KIND: CC50 at 72 h

>>> test_result("O=C(Nc1ccccc1C(=O)O)OCC1c2ccccc2-c2ccccc21")
"30 to 50 µM"
>>> test_result("Cc1cc(/N=C/c2cc(Cl)cc(Cl)c2O)no1")
"~50 µM"
>>> test_result("N=C1S/C(=C/c2ccco2)C(=O)N1c1nccs1")
"> 50 µM"
>>> test_result("Cc1c(/N=C/c2cc(Br)cc(Br)c2Br)cccc1C(=O)O")
"38 µM"

---

Test system: BS-C-1 cells
METHOD_NOTES: WST-1 cytotoxicity assay
CONDITIONS_USED: 120 h, Table 6
READOUT_KIND: tox 120 h TC50 (µM)

>>> test_result("Nc1ccn(C[C@@H](CO)OCP(=O)(O)O)c(=O)n1 [Cidofovir, reference compound]")
300
>>> test_result("O=C(O)Cn1c2ccc(Cl)cc2c2nc3ccccc3nc21")
30
>>> test_result("Cc1ccc2c(Sc3ccc(Cl)cc3)c(C(=O)O)[nH]c2c1")
120
>>> test_result("CCn1c2ccccc2c2ccc(/C=N/n3cnnc3)cc21")
3
>>> test_result("CC(=O)n1c2ccccc2c2nc(C)sc21")
75
>>> test_result("N=C1S/C(=C/c2ccco2)C(=O)N1c1nccs1")
50
>>> test_result("Cc1cc(/N=C/c2cc(Cl)cc(Cl)c2O)no1")
20
>>> test_result("Cc1c(/N=C/c2cc(Br)cc(Br)c2Br)cccc1C(=O)O")
20
>>> test_result("O=C1/C(=C/C2CCCO2)CC/C1=C\\C1CCCO1 (stereo not shown)")
50
>>> test_result("N=C1/C(=C/c2coc3ccccc3c2=O)C(=O)N=C2SC=NN12")
50
